Assay system: Bile acid receptor (Homo sapiens) (UniProt Q96RI1)
Sequence (Q96RI1 whole entry, looked up): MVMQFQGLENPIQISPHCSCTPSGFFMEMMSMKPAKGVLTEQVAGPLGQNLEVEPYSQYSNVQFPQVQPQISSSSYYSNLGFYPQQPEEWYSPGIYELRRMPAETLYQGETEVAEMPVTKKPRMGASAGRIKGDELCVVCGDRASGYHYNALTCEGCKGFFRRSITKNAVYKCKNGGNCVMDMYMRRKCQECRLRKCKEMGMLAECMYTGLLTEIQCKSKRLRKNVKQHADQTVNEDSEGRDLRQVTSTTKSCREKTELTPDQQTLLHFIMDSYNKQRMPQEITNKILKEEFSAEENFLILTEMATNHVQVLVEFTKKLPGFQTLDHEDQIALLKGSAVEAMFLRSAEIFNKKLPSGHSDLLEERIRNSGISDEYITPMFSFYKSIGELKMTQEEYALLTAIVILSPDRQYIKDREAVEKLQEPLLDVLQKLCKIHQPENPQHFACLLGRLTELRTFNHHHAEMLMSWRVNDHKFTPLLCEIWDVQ
Assay protocol: qHTS assay to identify small molecule agonists of the farnesoid-X-receptor (FXR) signaling pathway (AID 743220)
Condition label: HEK293T FXR-UAS-bla, beta-lactamase FRET ratio, 16 h; series mostly up to 62.6 µM
Inconclusive results are not listed. Activity calls are given as the source filed them. Calls follow the shape of the dose curve; as a rule, active = well fitted activation curve with a large enough effect in the signal ratio in the repeat runs (not every such curve was filed as active); inconclusive = weak or mixed curves, or effect the other way; inactive = flat fitted curve, though single readings scatter; the % refers to the signal ratio.
Parameter measured: outcome

Molecule: Nc1nc(N)c(-c2ccccc2)s1
outcome: inactive

Molecule: Cc1cc(NC(=O)C(=O)O)cc(C)c1Oc1ccc(O)c2c1CCC2
outcome: inactive

Molecule: CC(=O)O[C@H]1C[C@@H]2CC[C@@H]3[C@H](CC[C@@]4(C)[C@H]3C[C@H]([N+]3(C)CCCCC3)[C@@H]4OC(C)=O)[C@@]2(C)C[C@@H]1N1CCCCC1
outcome: inactive

Molecule: Cc1cc(CC(=O)O)c(C)n1-c1ccc(Cl)cc1
outcome: inactive

Could you now consider this next molecule?
Input line: Which outcome value belongs to OCC1CC2CC1C1CCC(CO)C21 (configuration not stated) ?
Output line: inactive
